Measured values drawn from PubChem BioAssay (Tox21) for this set.

EXPERIMENTAL TARGET: Luciferin 4-monooxygenase (Photinus pyralis)
ASSAY PROCEDURE: qHTS assay to identify small molecule inhibitors of firefly luciferase (AID 1224835); also: nearly all actives have a fitted effect of over 25% in size; also: potency is read from the fitted curve at half-maximal effect
TEST CONTEXT: purified P. pyralis luciferase, luminescence inhibition; series mostly up to 115 µM
Results filed as inconclusive are left out. Calls of active or inactive are those of the source. Calls follow the shape of the dose curve; as a rule, active = well fitted inhibition curve with a large enough effect in the repeat runs; inconclusive = weak or mixed curves; inactive = flat fitted curve, though single readings scatter.
MEASURE: Potency

In the examples that follow, each entry is paired with its recorded Potency.
CCCCCCCCCCCCCCCCCCn1cc[n+](C)c1    inactive
CC(C)(C)c1cc([N+](=O)[O-])cc(C(C)(C)C)c1O    inactive
C1CCC2CCCCC2C1 (stereo not drawn)    inactive
CCSC(C)CC1CC(=O)C(/C(CC)=N/OC/C=C/Cl)=C(O)C1 (stereo not drawn)    inactive
CN(C)CCc1c[nH]c2ccc(O)cc12    inactive

CCN(CC)C(=S)[S-].CCN(CC)C(=S)[S-].[Zn+2] has a reported Potency of 35.3 µM (active)

Input COC12CC[C@@]3(C[C@@H]1C(C)(O)C(C)(C)C)[C@H]1Cc4ccc(O)c5c4[C@@]3(CCN1CC1CC1)[C@H]2O5 (stereo partly drawn) . Output Potency: inactive

Note to self: Potency recorded for CN(C)c1ccc(N=Nc2ccccc2)cc1 was 0.252 µM (active)

Summary for this compound, N#Cc1ccccc1Cl : Potency is inactive

Field Potency (entry [CH3][Hg][Cl] ) reads 5.62 µM (active)

----------
ASSAY PROCEDURE: qHTS assay to identify small molecule antagonists of the estrogen related receptor signaling pathway with the pleiotropic PPARgamma coactivator (PGC) from Tox21 10K library - cell viability counter screen (AID 1224840); also: nearly all actives have a fitted effect of over 40% in size
TEST CONTEXT: PGC/ERR reporter cells viability, CellTiter-Fluor, 17.5 h; series mostly up to 92.4 µM
Results filed as inconclusive are left out. The source made the active and inactive calls. Calls come from the whole dose curve; as a rule, active = well fitted cell-killing curve with a large enough effect in the repeat runs (not every such curve was filed as active); inconclusive = weak or mixed curves, or effect the other way; inactive = no such curve, though single readings can be large or run the other way.
Result category, one only: active, inactive

input: Look up the recorded call for CC(=O)OC1(c2ccccc2)CCN(CCc2ccccc2)CC1 in this test.
output: inactive

input: Outcome logged for Cc1ccc(OP(=O)(Oc2ccccc2)Oc2ccccc2)cc1 in this assay:
output: inactive

input: For this compound, state the assay outcome: O=[N+]([O-])c1ccc2ccc3cccc4ccc1c2c34
output: inactive

input: Identify the outcome logged in this assay for the compound shown: O=C(CCl)Nc1ccccc1
output: active

input: What classification did COC[C@H](C)N(C(=O)CCl)c1c(C)csc1C end up with in this test?
output: inactive

input: Given CCOC(=O)CC(=O)CCl , state the outcome it received in this test.
output: inactive

input: Hello, I am checking results. What call was entered for C=CCOC(N)=O ?
output: inactive

input: Recorded test outcome, item Clc1ccc(Oc2ccccc2)cc1
output: inactive

----------
ASSAY PROCEDURE: qHTS RealTime-Glo MT Cell Viability Assay in HEK293 cells - 16 hour (AID 1224872); also: nearly all actives have a fitted effect of over 50% in size
TEST CONTEXT: RealTime-Glo luminescence; series mostly up to 76.8 µM
Text: National Center for Advancing Translational Sciences [NCATS] NIH Chemical Genomics Center [NCGC] U.S. Environmental Protection Agency [EPA] National Institutes of Environmental Health Sciences [NIEHS] National Toxicology Program [NTP] U.S. Food and Drug Administration [FDA] Measure of cell viability is critical in the cell-base assay. Analysis of cell viability is necessary for the characterization of cell responses to cytotoxic drugs and environmental stress. […]
Results filed as inconclusive are left out. The source made the active and inactive calls. Calls follow the shape of the dose curve; as a rule, active = well fitted cell-killing curve with a large enough effect in the repeat runs; inconclusive = weak or mixed curves, or effect the other way; inactive = flat fitted curve, though single readings scatter.
Mark one answer only. Choices: active, inactive

input: How was ClC1=C(Cl)[C@]2(Cl)[C@@H]3[C@@H](Cl)[C@H](Cl)C[C@@H]3[C@@]1(Cl)C2(Cl)Cl classified in this test?
output: inactive

input: Query: recorded result category for C=CCOC(N)=O in this test
output: inactive

input: For this compound, state the assay outcome: O=C1c2ccccc2C(=O)C1C(=O)C(c1ccccc1)c1ccc(Cl)cc1 (configuration not stated)
output: inactive

input: Returns: the outcome recorded for N#CCc1ccc(Cl)cc1 in this assay.
output: inactive

input: Please share the test call associated with CC(C)CC(C)Nc1ccc(Nc2ccccc2)cc1 (configuration not stated) .
output: active

input: Dear all, I need the recorded test outcome for CC(C)CCCCCOC(=O)c1ccccc1C(=O)OCCCCCC(C)C , thank you.
output: inactive

input: Please share the test call associated with COc1ccc([N+](=O)[O-])cc1O .
output: inactive

input: What is the recorded call for this compound in the test? N#Cc1c(-c2ccc(Cl)cc2)[nH]c(C(F)(F)F)c1Br
output: active

input: Call for entry N#Cc1ccc(O)cc1 :
output: inactive

input: Just curious, what result did ClC(Cl)=C(c1ccc(Cl)cc1)c1ccc(Cl)cc1 get here?
output: active

input: What outcome does the record of this test show for O=[N+]([O-])c1ccc2ccc3cccc4ccc1c2c34 ?
output: inactive

input: Called result for CC(C)(COCC1CO1)COCC1CO1 (configuration not stated)
output: inactive

input: For COP(=O)(CCC(=O)NCO)OC , which call appears in the assay record?
output: inactive

input: Could you please tell me the result logged for CC(C)(C)C(O)C(Oc1ccc(-c2ccccc2)cc1)n1cncn1 (configuration not stated) in this assay?
output: active

input: Recorded test call requested for S=C=Nc1cccc2ccccc12
output: inactive

input: Could you please tell me the result logged for CN(CCCC(O)c1cccnc1)N=O (configuration not stated) in this assay?
output: inactive

input: // return assay outcome for COP(=S)(OC)Oc1cc(Cl)c(Br)cc1Cl
output: inactive

input: Check the results log: what was the call for C[CH2][Hg][N]1C(=O)C2C(C1=O)C1(Cl)C(Cl)=C(Cl)C2(Cl)C1(Cl)Cl (configuration not stated) ?
output: active

input: Check the results log: what was the call for CCN ?
output: inactive

input: Which result was noted for this compound in the test: Oc1ccc(C(=C(Cl)Cl)c2ccc(O)cc2)cc1
output: active

input: Which result was noted for this compound in the test: CC(C)(c1ccc(O)c(-c2ccccc2)c1)c1ccc(O)c(-c2ccccc2)c1
output: active

input: Returns: the outcome recorded for c1ccc2c(c1)[nH]c1cnccc12 in this assay.
output: inactive

input: What outcome does the record of this test show for O=C1C=CC(=O)c2ccccc21 ?
output: active

input: Dear all, I need the recorded test outcome for BrC(Br)Br , thank you.
output: inactive

input: Given Fc1cccc(Cl)c1CCl , state the outcome it received in this test.
output: inactive

input: Just curious, what result did Oc1c(Cl)c(Cl)cc(Cl)c1Cl get here?
output: active

input: Assay outcome for CC(=O)Nc1ccc2c(c1)Cc1ccccc1-2 : what was it?
output: inactive

input: Identify the outcome logged in this assay for the compound shown: SCc1ccco1
output: inactive

input: What did the test return for CC(C)OS(C)(=O)=O ?
output: inactive

input: How did this test come out for C[C@@H](Oc1ccc(Cl)cc1Cl)C(=O)O ?
output: inactive

input: Please state the recorded outcome for this compound: C[C@H]1O[C@@H](O[C@H]2[C@@H](O)C[C@H](O[C@H]3[C@@H](O)C[C@H](O[C@H]4CC[C@@]5(C)[C@H](CC[C@@H]6[C@@H]5CC[C@]5(C)[C@@H](C7=CC(=O)OC7)CC[C@]65O)C4)O[C@@H]3C)O[C@@H]2C)C[C@H](O)[C@@H]1O
output: active

input: // return assay outcome for C[C@@H]1CC[C@@]2(OC1)O[C@H]1[C@@H](O)[C@H]3[C@@H]4CC[C@H]5C[C@@H](O[C@@H]6O[C@H](CO)[C@H](O[C@@H]7O[C@H](CO)[C@@H](O)[C@H](O[C@@H]8OC[C@@H](O)[C@H](O)[C@H]8O)[C@H]7O[C@@H]7O[C@H](CO)[C@@H](O)[C@H](O[C@@H]8O[C@H](CO)[C@@H](O)[C@H](O)[C@H]8O)[C@H]7O)[C@H](O)[C@H]6O)[C@H](O)C[C@]5(C)[C@H]4CC[C@]3(C)[C@H]1[C@@H]2C
output: active

input: Can you look up the reported call for CCc1ccccc1C for me?
output: inactive

input: I'd appreciate the recorded outcome for CCOP(=S)(OCC)SCS(=O)(=O)C(C)(C)C from this test.
output: inactive

input: What classification did ClC1=C(Cl)[C@]2(Cl)[C@H]3[C@H]([C@H]4C=C[C@H]3C4)[C@@]1(Cl)C2(Cl)Cl end up with in this test?
output: inactive

input: Look up the recorded call for c1ccc(OCC2CO2)cc1 (configuration not stated) in this test.
output: inactive

input: Status in this test for CC1(C)CN=C(NN=C(/C=C/c2ccc(C(F)(F)F)cc2)/C=C/c2ccc(C(F)(F)F)cc2)NC1 ?
output: active

input: What did the test return for Cc1ccc(C(=O)Cl)cc1 ?
output: inactive

input: // return assay outcome for CN(C)CCc1c[nH]c2ccc(O)cc12
output: inactive

input: Name the outcome recorded for C=CCC1=C(C)C(OC(=O)C2C(C=C(C)C)C2(C)C)CC1=O (configuration not stated) in the assay.
output: active

input: Answer briefly: the call reported for CCCN(CCC)CCc1c[nH]c2ccccc12 in this assay.
output: inactive

input: What outcome does the record of this test show for CC(=O)/C=C/c1ccc2c(c1)OCO2 ?
output: inactive

input: What did the test return for CC(=O)O[C@H]1CC[C@@]2(C)C(=CC[C@@H]3[C@@H]2CC[C@]2(C)C(=O)CC[C@@H]32)C1 ?
output: active

input: I would be grateful if you could indicate the recorded call for C[As+](C)(C)CC(=O)[O-] .
output: inactive

input: Recorded call for CC(=O)OC1(c2ccccc2)CCN(CCc2ccccc2)CC1 ?
output: active

input: Field: outcome | Entry: CCCCCCCCCCCCCCCCCCn1cc[n+](C)c1
output: active

input: Per the assay record, what outcome was assigned to CCN(CC)c1c([N+](=O)[O-])cc(C(F)(F)F)c(N)c1[N+](=O)[O-] ?
output: active
